assay: Lipophilicity, log D of the compound at pH 4.0; assay type: physicochemical; settings: buffer
attribute-measured: logD

>>> recorded_value("CNC(=O)O[C@H]1CCc2ccc(N3CCN(C4COC4)CC3)cc2[C@@H]1NC(=O)c1ccc(F)cc1")
1.2
>>> recorded_value("CNC(=O)O[C@H]1COc2ccc(N3CCN(C4COC4)CC3)cc2[C@@H]1NC(=O)c1ccc(F)cc1")
1

====

test: AUC (0 to 24 hrs) in 129SvEv mouse model of CaCl2-induced abdominal aortic aneurysm at 3 mg/kg dosed through oral gavage BID for 4 weeks with first dose given one day prior to surgery; assay type: ADME, organism-based, Abdomen; parameters: time < 24 hr, dose 3 mg/kg, route oral; conditions: in vivo
attribute-measured: AUC(0-t) at 24 h (ng·h/mL)
Respond with the bare value in ng·h/mL.

Provide AUC(0-t) at 24 h value for the following molecule: `CNC(=O)O[C@H]1COc2ccc(N3CCN(C4COC4)CC3)cc2[C@@H]1NC(=O)c1ccc(F)cc1`
2330
